Where do these numbers come from? They come from patent US8455475B2.

- Measured on: rat B1R (bradykinin receptor 1) (Rattus norvegicus, UniProt P97583)
- Construct: expressed in transfected cells; host or cells: CHO K1 cells
- Sequence (P97583 whole entry): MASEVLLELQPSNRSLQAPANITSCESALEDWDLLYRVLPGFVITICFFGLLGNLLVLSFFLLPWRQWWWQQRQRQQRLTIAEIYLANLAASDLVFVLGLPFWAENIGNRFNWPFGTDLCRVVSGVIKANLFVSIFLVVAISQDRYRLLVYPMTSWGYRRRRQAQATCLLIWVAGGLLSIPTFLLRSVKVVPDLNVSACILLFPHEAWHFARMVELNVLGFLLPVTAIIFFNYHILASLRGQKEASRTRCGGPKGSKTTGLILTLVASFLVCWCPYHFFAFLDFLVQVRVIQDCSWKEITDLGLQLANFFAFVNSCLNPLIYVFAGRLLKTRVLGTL
- Test summary: FLIPR Ca2+ assay (Fluo-4) on CHO K1 cells stably transfected with the B1R gene of the rat (rB1R cells): % inhibition at 10 μM / IC50, agonist Des-Arg9-bradykinin
- Assay type: cell-based
- Particulars: rat B1R
Endpoint name: % Inhibition (rat B1R) at 10 μM (%)

Example molecules with recorded % Inhibition (rat B1R) at 10 μM:
Molecule	% Inhibition (rat B1R) at 10 μM [%]
O=C(Nc1ccc(Cl)c(Cl)c1)NC1CCc2ccc(C(=O)N3CCC4(CC3)CCN(c3ccncc3)CC4)cc21 (centres unmarked)	76
O=C(Nc1ccc(Cl)c(Cl)c1)NC1CCc2ccc(C(=O)N3CCC4(CCN(c5ccncc5)CC4)C3)cc21 (centres unmarked)	77
CC1(C)CC(NC(=O)Nc2ccc(Cl)c(Cl)c2)c2cc(C(=O)N3CCC4(CC3)CCN(c3ccncc3)CC4)ccc21 (centres unmarked)	80

(1) O=C(Nc1ccc(Cl)c(Cl)c1)NC1CCc2ccc(C(=O)N3CCC4(CC3)CCN(c3ccncc3)C4)cc21 (centres unmarked)
(2) CN(C(=O)NCc1ccccc1Cl)C1CCc2ccc(C(=O)N3CCC4(CC3)CCN(c3ccncc3)CC4)cc21 (centres unmarked)
Looking at 1 and 2 , which one comes out lower in % Inhibition (rat B1R) at 10 μM terms? To answer, give the label that identifies your chosen option.
1
(1: 60%, 2: 93%)

---

- Measured on: human B1R (bradykinin receptor 1) (Homo sapiens, UniProt P46663)
- Construct: expressed in transfected cells; host or cells: CHO K1 cells
- Sequence (P46663 1-353): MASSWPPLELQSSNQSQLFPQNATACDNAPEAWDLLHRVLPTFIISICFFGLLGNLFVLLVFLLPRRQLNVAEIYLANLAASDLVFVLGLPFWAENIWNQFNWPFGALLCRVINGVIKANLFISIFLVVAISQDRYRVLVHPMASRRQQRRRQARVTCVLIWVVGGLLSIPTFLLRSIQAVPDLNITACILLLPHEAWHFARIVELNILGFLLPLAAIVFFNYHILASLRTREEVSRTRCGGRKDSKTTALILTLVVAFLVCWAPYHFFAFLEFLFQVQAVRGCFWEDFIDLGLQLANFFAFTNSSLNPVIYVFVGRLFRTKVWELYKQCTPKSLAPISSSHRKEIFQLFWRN
- Test summary: FLIPR Ca2+ assay (Fluo-4) on CHO K1 cells stably transfected with the human B1R gene (hB1R cells): % inhibition at 10 μM / IC50, agonist Lys-Des-Arg9-bradykinin
- Type: cell-based
- Particulars: CHO-K1, human B1R
Endpoint name: inhibition at 10 µM (%)

Example molecules with recorded inhibition at 10 µM:
Molecule	Measured on	inhibition at 10 µM (%)
O=C(c1ccc2c(c1)C(N(C(=O)c1ccccc1Cl)C1CC1)CC2)N1CCC2(CC1)CCN(c1ccncc1)C2 (centres unmarked)	human B1R (bradykinin receptor 1) (Homo sapiens, UniProt P46663)	99
CC1(C)CC(NC(=O)c2ccccc2Cl)c2cc(C(=O)N3CCC4(CCN(c5ccncc5)CC4)C3)ccc21 (centres unmarked)	human B1R (bradykinin receptor 1) (Homo sapiens, UniProt P46663)	100
O=C(NC1CCc2ccc(C(=O)N3CCC4(CC3)CCN(c3ccncc3)C4)cc21)c1ccc(Cl)cc1Cl (centres unmarked)	human B1R (bradykinin receptor 1) (Homo sapiens, UniProt P46663)	97

(I) O=C(N[C@@H]1CCc2ccc(C(=O)N3CCC4(CCN(c5ccncc5)CC4)C3)cc21)c1c(F)cccc1C(F)(F)F
(II) O=C(c1cccc2c1CC[C@H]2N1Cc2cccc(Cl)c2C1=O)N1CCC2(CCN(c3ccncc3)CC2)C1
I need your help: which of the pair I , II has higher inhibition at 10 µM? To answer, give the label that identifies your chosen option.
I

(A) CC1(C)CC(NC(=O)c2c(Cl)cccc2C(F)(F)F)c2cc(C(=O)N3CCC4(CC3)CCN(c3ccncc3)CC4)ccc21 (centres unmarked)
(B) Cc1ccc(F)c(C(=O)NC2CCc3ccc(C(=O)N4CCC5(CC4)CCN(c4ccncc4)C5)cc32)c1Cl (centres unmarked)
I need your help: which of the pair A , B has higher inhibition at 10 µM? To answer, give the label that identifies your chosen option.
A
(A: 100%, B: 48%)
